target: Eukaryotic translation initiation factor 4H (Homo sapiens) (UniProt Q15056); assay: human eIF4H binding inhibitors, primary screen, translation initiation inhibitor project, biochemical, uHTS, fluorescence polarization (AID 2012); conditions: eIF4H fluorescence polarization binding assay; at 35 µM;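 note: calls also rest on retests at 20 µM and on dose response follow-up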
The campaign covered roughly 290,000 compounds. About 2,700 (0.93%) were called active. The rule behind the calls is not given here. The list comes from a sample in which actives are over-represented; it also holds close analogues and randomly drawn compounds.
Labels: active, inactive

• O=C(NCCCn1ccnc1)/C(=C\c1ccccc1F)NC(=O)c1ccccc1 = inactive
• Cc1ccc(OCC(=O)Nc2ccc(C(=O)O)cc2NC(=O)COc2ccc(C)c(C)c2)cc1C = inactive
• O=C(COc1ccc(/C=N/NC(=O)c2ccc(O)cc2)cc1)Nc1ccc([N+](=O)[O-])cc1 = active
• CCN(CC)c1ccc(/C=N/NC(=O)c2cnccn2)c(O)c1 = inactive
• COC(=O)Cc1ccc(NC(=S)NCc2ccc(Cl)cc2)cc1 = inactive
• Cc1cc(S(=O)(=O)N2CCOCC2)ccc1OCC(=O)N1CCOCC1 = inactive
• Cc1cc(=O)oc(C)c1C(=O)NCCN(C)Cc1ccccc1 = inactive
• CN(C)S(=O)(=O)N1CCC(Oc2cccc(C(=O)NCCCC3CCCC3)c2)CC1 = inactive
• O=C(CSc1ccc(-c2ccccn2)nn1)Nc1ccccc1 = inactive
• CCOC(=O)C1CCN(Cc2ccc(-c3ccccc3)cc2)CC1 = inactive
• Fc1ccccc1CNC(=S)Nc1ccc(Cl)cc1 = active
• O=C(N/N=C\C1CC=CCC1)c1ccc(Br)o1 (stereo unspecified) = inactive
• Cn1c(N)cc(-c2ccc(F)cc2)c(C#N)c1=O = active
• O=C(COC(=O)c1cccs1)NCc1cccs1 = inactive
• CCn1c(=O)c2ccccc2n(CC(=O)N2CCCc3ccccc32)c1=O = inactive
• O=C(COC(=O)CCC(=O)c1cccs1)NCc1ccco1 = active
• C=CCNC(=O)/C=C/c1ccc(C(C)C)cc1 = inactive
• O=C(CC12CC3CC(CC(C3)C1)C2)NCc1ccco1 = inactive
• CCOC(=O)CC1(NC(=O)c2cc(COc3cncc(Cl)c3)on2)CCCCC1 = inactive
• CCc1nc(N2CCN(C(C)=O)CC2)c2c3c(sc2n1)CCCC3 = inactive
• Cc1cc(OC(C)C(=O)NC2CC(C)(C)NC(C)(C)C2)c2c(C)cc(=O)oc2c1 (stereo unspecified) = inactive
• Cc1ccc(C(=O)O)cc1-c1ccc(/C=C2\SC(=O)N(CC(=O)Nc3ccc4c(c3)OCO4)C2=O)o1 = active
• CC(=O)Nc1ccc(NC(=O)c2sc3nc4c(c(-c5ccc(C)cc5)c3c2N)CCC4)cc1 = inactive
• COc1ccc2[nH]c(=O)c(C3c4cc(OC)c(OC)cc4CCN3C(=O)c3ccco3)cc2c1 (stereo unspecified) = inactive
• O=C(COc1ccc([N+](=O)[O-])cc1)Nc1ccc(N2CCCC2)cc1 = inactive
• COc1ccccc1C(=O)COC(=O)CNS(=O)(=O)c1ccc(NC(C)=O)cc1 = inactive
• COc1ccc(C(C)=O)cc1CSc1nc2nc(C)cc(C)n2n1 = inactive
• Cc1ccc(OCc2cc(C(=O)N(C)CCn3ccnc3C)no2)cc1C = inactive
• O=C(NCc1ccccc1Cl)C1CCN(S(=O)(=O)c2cccc3nonc23)CC1 = inactive
• Nc1c(C(=O)c2cccs2)sc2nsc(SCCN3CCCCC3)c12 = inactive
• COc1ccc(O)c(C(=O)c2cnc3c(c2)c(-c2ccc(F)cc2)c(C#N)c(=O)n3C)c1 = inactive
• COc1ccc(NC(=O)CCN2C(=O)/C(=C/c3ccc4c(c3)OCO4)SC2=S)cc1 = inactive
• COC(=O)c1ccc(C(=O)NC2CC(C)(C)Cc3c2cnn3-c2ccc(F)cc2)nc1 (stereo unspecified) = inactive
• CC(Oc1cc2oc(=O)c3c(c2cc1Cl)CCCC3)C(=O)NCc1ccncc1 (stereo unspecified) = inactive
• Cc1cccc(NC(=O)c2sc3nc(N4CCOCC4)c4c(c3c2N)CCCC4)c1 = inactive
• O=C(COC(=O)c1cnc(Cl)c(Cl)c1)NCc1ccco1 = inactive

Values were extracted from PubChem BioAssay AID2012.
